- assay_text: method code SF-AS, from DOI: 10.1021/jm00294a001, PMID: 5116225
reported_property: logP

Some solved entries appear below for comparison.
1) C=C(C)C(=O)O[C@H]1CC2=C[C@@H](C[C@@]3(C)O[C@@H]3[C@H]3OC(=O)C(=C)[C@@H]31)OC2=O	0.69
2) C=CC12COC(=O)C(=C)C1C(O)C1C(=C)C(=O)OC1C2 (centres undefined)	-0.14
3) C=C1C(=O)O[C@@H]2[C@H]1CC[C@H](C)[C@]1(O)CCC(=O)[C@@]21C	0.83
4) C=C1C(=O)OC2C=C(C)C(O)CC=C(C)CCC12 (centres undefined)	1.4
5) C=C1C(=O)O[C@H]2C[C@@H](C)[C@@H]3C=CC(=O)[C@@]3(C)C[C@H]12	1.17
6) C=C1C(=O)O[C@@H]2[C@H]1CC[C@H](C)[C@@H]1C[C@@H](O)C(=O)[C@@]21C	0.66
7) C=C[C@@]12COC(=O)C(=C)[C@@H]1[C@H]1OC(=O)C(=C)[C@@H]1[C@@H](OC(=O)C(=C)C)C2	1.56

[I] C=C1C(=O)OC2C=C(C)C3(O)C=CC(C)(CC(OC(=O)C(=CC)COC(C)=O)C12)O3 (centres undefined)
[II] C=C1C(=O)O[C@H]2[C@H]1[C@H](OC(=O)/C(C)=C\C)C[C@]1(CO1)[C@@H]1[C@H](OC(C)=O)C=C(C)[C@]21O
When I and II are compared, which has the higher number for logP? Lab note: record the label of whichever item you select.
I
(I: 1.19, II: 0.76)
